- Target Entity: Testis-specific serine/threonine-protein kinase 2 (Homo sapiens) (UniProt Q96PF2);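 further: values are mean inhibition of TSSK2 activity from the GSK PKIS profiling panel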
- Sequence (Q96PF2 whole entry): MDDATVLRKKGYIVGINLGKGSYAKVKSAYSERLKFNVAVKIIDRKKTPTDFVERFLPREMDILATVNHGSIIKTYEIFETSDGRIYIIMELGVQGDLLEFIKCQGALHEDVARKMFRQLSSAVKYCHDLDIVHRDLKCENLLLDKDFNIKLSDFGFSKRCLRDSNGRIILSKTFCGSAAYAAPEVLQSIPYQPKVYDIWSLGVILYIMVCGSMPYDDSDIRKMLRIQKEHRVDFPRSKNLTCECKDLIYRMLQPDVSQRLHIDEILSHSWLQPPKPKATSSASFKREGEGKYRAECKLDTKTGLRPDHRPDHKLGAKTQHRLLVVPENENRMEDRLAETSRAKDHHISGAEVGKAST
- Measurement Context: at 0.1 µM
Quantity Kind: inhibition (%)
Report the figure in % without appending any unit label.

Returns the measured inhibition for the input molecule. Input: `CN1CCC(n2cnc(-c3ccc(F)cc3)c2-c2ccnc(NCCO)n2)CC1` 3.07

Do the same for `CS(=O)(=O)CCNCc1ccoc1-c1ccc2ncnc(Nc3ccc(OCc4ccccc4)cc3)c2c1` please 1.17

Do the same for `COc1cccc(-n2ncc3c(N/N=C/c4ccc(C(=O)NCCN(C)C)cc4)ncnc32)c1` please -0.44

Do the same for `CS(=O)(=O)Nc1ccc(-c2cc(-c3ccccc3)cc(C(N)=O)c2N)cc1` please 0.46

Do the same for `COc1ccccc1-c1cc(/C=C2\C(=O)Nc3ncc(Br)cc32)cc(Br)c1O` please 2.5

Do the same for `CCn1c(-c2nonc2N)nc2cncc(C(=O)NCCNC)c21` please 2.36

Do the same for `O=C(O[C@H]1CN[C@H](C#Cc2cc3ncnc(Nc4ccc5c(cnn5Cc5ccccc5)c4)c3s2)C1)N1CCOCC1` please -0.69

Do the same for `CN(C)CCNC(=O)Nc1ccc(N(C)c2ccnc(Nc3ccc(CS(C)(=O)=O)cc3)n2)cc1` please 0.57

Do the same for `COc1ccc(Nc2ncc(-c3ccccc3)o2)cc1OC` please 0.12

Do the same for `O=C1Nc2ccccc2/C1=C1\CCc2cc(O)ccc21` please 1.83

Do the same for `NS(=O)(=O)c1ccc(N/N=C2\C(=O)Nc3ccc(C(=O)NCc4ccncc4)cc32)cc1` please 2.55

Do the same for `CC(C)c1ccc(-c2cc(-c3c[nH]nc3-c3ccccn3)ccn2)cc1` please -0.82

Do the same for `COc1cccc(Nc2nccc(-c3cnn4ncccc34)n2)c1` please 0.21

----------
- System: Serine/threonine-protein kinase B-raf (Homo sapiens), P15056 [V600E];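 further: enzyme inhibition of the BRAF V599E mutant kinase, given as mean percent inhibition, screened within the GSK PKIS kinase inhibitor set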
- Sequence (P15056 whole entry V600E): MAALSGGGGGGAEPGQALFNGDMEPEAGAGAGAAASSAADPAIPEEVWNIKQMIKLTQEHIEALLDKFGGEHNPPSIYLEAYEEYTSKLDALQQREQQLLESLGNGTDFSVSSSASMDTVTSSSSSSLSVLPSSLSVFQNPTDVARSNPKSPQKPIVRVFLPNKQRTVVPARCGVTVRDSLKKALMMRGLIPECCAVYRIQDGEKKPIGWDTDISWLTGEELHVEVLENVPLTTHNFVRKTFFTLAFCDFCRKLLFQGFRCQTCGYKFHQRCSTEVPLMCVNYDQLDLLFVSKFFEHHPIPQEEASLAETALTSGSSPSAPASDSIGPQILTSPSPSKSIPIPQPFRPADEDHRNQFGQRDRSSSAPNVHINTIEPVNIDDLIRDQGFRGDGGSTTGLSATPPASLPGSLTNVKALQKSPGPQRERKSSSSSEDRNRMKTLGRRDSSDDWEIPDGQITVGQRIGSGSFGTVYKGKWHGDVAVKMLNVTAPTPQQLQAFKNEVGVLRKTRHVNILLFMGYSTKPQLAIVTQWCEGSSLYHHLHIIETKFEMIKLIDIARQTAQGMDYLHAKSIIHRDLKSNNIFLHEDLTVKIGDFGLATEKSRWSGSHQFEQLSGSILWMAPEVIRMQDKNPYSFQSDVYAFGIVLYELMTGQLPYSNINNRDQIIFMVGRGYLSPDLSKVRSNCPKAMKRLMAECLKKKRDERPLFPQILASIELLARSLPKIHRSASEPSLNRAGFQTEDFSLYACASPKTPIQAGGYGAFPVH
- Measurement Context: at 1 µM
- Description: GSK_PKIS: BRAF (V599E mutant) mean inhibition at 1 uM [Nanosyn]
Quantity Kind: inhibition
Please give the number followed by its unit.

Provide the documented inhibition with Serine/threonine-protein kinase B-raf (Homo sapiens), P15056 [V600E] as the system for `O=C(O[C@H]1CN[C@H](C#Cc2cc3ncnc(Nc4ccc(OCc5cccc(F)c5)c(Cl)c4)c3s2)C1)N1CCOCC1` 6.1%

Do the same for `COc1cccc(-n2ncc3c(N/N=C/c4ccc(C(=O)NCCN(C)C)cc4)ncnc32)c1` please 23.6%

Do the same for `CNC(=O)c1sc(-n2cnc3cc(OC)c(OC)cc32)cc1OCc1ccccc1C(F)(F)F` please 4.66%

Do the same for `CS(=O)(=O)CCNCc1ccoc1-c1ccc2ncnc(Nc3ccc(OCc4ccccc4)cc3)c2c1` please 1.31%

----------
- Target Entity: 5'-AMP-activated protein kinase catalytic subunit alpha-1 (Homo sapiens) (UniProt Q13131);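 further: enzyme tested as the AMPK alpha1 beta1 gamma1 complex, values reported as mean percent inhibition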
- Sequence (Q13131 whole entry, looked up): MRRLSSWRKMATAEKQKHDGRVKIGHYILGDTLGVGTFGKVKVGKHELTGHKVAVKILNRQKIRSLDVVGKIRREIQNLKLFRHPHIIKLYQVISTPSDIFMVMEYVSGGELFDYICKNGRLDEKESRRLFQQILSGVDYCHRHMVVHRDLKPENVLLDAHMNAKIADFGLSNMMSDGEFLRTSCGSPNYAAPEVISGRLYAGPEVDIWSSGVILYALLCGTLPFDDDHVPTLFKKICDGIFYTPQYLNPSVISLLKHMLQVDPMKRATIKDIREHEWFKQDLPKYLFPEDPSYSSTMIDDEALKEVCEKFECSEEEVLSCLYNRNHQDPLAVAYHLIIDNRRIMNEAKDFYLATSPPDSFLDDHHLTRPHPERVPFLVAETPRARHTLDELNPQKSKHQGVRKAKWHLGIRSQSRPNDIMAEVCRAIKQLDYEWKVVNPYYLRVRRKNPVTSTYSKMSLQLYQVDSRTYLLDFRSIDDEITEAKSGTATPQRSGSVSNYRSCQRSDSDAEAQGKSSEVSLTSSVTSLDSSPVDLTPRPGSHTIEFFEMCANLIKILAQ
- Measurement Context: at 0.1 µM
- Description: GSK_PKIS: AMPKA1 (A1B1G1) mean inhibition at 0.1 uM [Nanosyn]
Would you mind telling me the reported inhibition of each entry?
Report the figure in % without appending any unit label.

Provide the documented inhibition with 5'-AMP-activated protein kinase catalytic subunit alpha-1 (Homo sapiens) (UniProt Q13131) as the system for `CN1CCC(n2cnc(-c3ccc(F)cc3)c2-c2ccnc(NCCO)n2)CC1` 2.98

Do the same for `Cc1ccc(-c2cc3c(NC(=O)C4CC4)ncnc3o2)cc1` please 3.13

Do the same for `CN(C)CCNC(=O)Nc1ccc(N(C)c2ccnc(Nc3ccc(CS(C)(=O)=O)cc3)n2)cc1` please 2.62

Do the same for `O=C(O[C@H]1CN[C@H](C#Cc2cc3ncnc(Nc4ccc5c(ccn5Cc5cc(F)ccc5F)c4)c3s2)C1)N1CCOCC1` please 3.06

Do the same for `COc1ccc(Nc2ncc(-c3ccccc3)o2)cc1OC` please 0.83

Do the same for `COC(=O)Nc1nc2cc(Oc3ccc(NC(=O)Nc4ccccc4)cc3)ccc2[nH]1` please 2.62

Do the same for `CN(c1ccc(NC(=O)NCCN2CCOCC2)cc1)c1ccnc(Nc2ccc(CS(C)(=O)=O)cc2)n1` please 3.65

Do the same for `CNC(=O)c1cncc(/C=C/c2ccccc2C)c1` please 3.16

Do the same for `O=C(Nc1n[nH]c2nnc(-c3cccnc3)cc12)C1CC1` please -0.35

Do the same for `Cc1nnc(-c2cccc(-c3ccc(C(=O)NCC4CC4)cc3)c2)o1` please 5.16

Do the same for `COC(=O)Nc1nc2ccc(Oc3ccc(NC(=O)Nc4cc(C(F)(F)F)ccc4F)cc3)cc2s1` please -0.71

----------
- Target Entity: MAP kinase-interacting serine/threonine-protein kinase 1 (Homo sapiens) (UniProt Q9BUB5)
- Sequence (Q9BUB5 whole entry, looked up): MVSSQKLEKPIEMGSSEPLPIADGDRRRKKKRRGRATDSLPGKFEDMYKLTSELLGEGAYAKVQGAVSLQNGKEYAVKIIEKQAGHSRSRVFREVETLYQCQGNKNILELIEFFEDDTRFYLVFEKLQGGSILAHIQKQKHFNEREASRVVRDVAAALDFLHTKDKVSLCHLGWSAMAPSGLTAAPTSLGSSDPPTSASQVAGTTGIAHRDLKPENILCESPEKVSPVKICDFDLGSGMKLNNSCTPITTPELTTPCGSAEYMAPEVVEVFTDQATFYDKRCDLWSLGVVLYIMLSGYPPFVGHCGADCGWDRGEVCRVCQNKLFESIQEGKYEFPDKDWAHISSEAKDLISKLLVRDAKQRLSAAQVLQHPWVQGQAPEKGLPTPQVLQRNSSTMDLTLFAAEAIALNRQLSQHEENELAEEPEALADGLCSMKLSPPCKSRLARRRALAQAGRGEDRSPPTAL
- Measurement Context: at 0.1 µM
- Description: GSK_PKIS: MKNK1 mean inhibition at 0.1 uM [Nanosyn]
Quantity Kind: inhibition (%)
Report the figure in % without appending any unit label.

Returns the measured inhibition for the input compound. Input: `Fc1cccc(COc2ccc(Nc3ncncc3C#Cc3ccccc3)cc2Cl)c1` 3.32

Do the same for `CNC(=O)c1ncccc1Nc1nc(Nc2cc3c(cc2OC)CCCN3C(=O)CN(C)C)nc2[nH]ccc12` please 2.12

Do the same for `NS(=O)(=O)c1cccc(N/C=C2\C(=O)Nc3ccccc32)c1` please 2.36

Do the same for CC1=C(C(=O)Nc2ccc3[nH]ncc3c2)C(c2ccc(F)cc2)N=C(c2ccc(C(F)(F)F)nc2)N1 (centres undefined) please 2.55

Do the same for `OCCCNc1nccc(-c2c(-c3ccc(F)cc3)nn3cc(C(F)(F)F)ccc23)n1` please 2.61

Do the same for `COc1ccccc1-c1cc(/C=C2\C(=O)Nc3ncc(Br)cc32)cc(Br)c1O` please 4.21

Do the same for `FC(F)(F)CNc1nccc(-c2cnn3ncccc23)n1` please 4.07

Do the same for `O=C(Nc1n[nH]c2nnc(-c3cccnc3)cc12)C1CC1` please 0.68

Do the same for `COC(=O)Nc1nc2cc(Oc3ccc(NC(=O)Nc4ccccc4)cc3)ccc2[nH]1` please 3

----------
Would you mind telling me the reported inhibition of each entry?
- Target Entity: Tyrosine-protein kinase Fes/Fps (Homo sapiens)
- Measurement Context: at 0.1 µM
- Description: GSK_PKIS: FES mean inhibition at 0.1 uM [Nanosyn]

Returns the measured inhibition for the input compound. Input: `NS(=O)(=O)c1ccc(N/N=C2\C(=O)Nc3cccc(CCc4ccncc4)c32)cc1` 0.64%

Do the same for `COC(=O)Nc1nc2ccc(Oc3ccc(NC(=O)Nc4cc(C(F)(F)F)ccc4F)cc3)cc2s1` please 0.15%

Do the same for `CCCNc1cccc(-n2ncc3c(N/N=C/c4ccncc4)ncnc32)c1` please 2.38%

Do the same for `COc1ccccc1-c1cc(/C=C2\C(=O)Nc3ncc(Br)cc32)cc(Br)c1O` please 3.24%

Do the same for `Cc1c2ccc(N(C)c3ccnc(Nc4cccc(S(N)(=O)=O)c4)n3)cc2nn1C` please 15.2%

Do the same for `c1cnn2ncc(-c3ccnc(NCCCN4CCOCC4)n3)c2c1` please 2.2%

Do the same for `N#Cc1cccc(Nc2ncc(-c3ccccc3)o2)c1` please 0.93%

Do the same for `Cn1c(-c2nonc2N)nc2cnccc21` please 2.6%

Do the same for `COc1ccc2ncn(-c3cc(O[C@H](C)c4ccccc4C(F)(F)F)c(C(N)=O)s3)c2c1` please -0.21%

Do the same for `COc1ccc(-c2nn3ncccc3c2-c2ccnc(Nc3ccc(F)c(F)c3)n2)cc1` please 2.66%

Do the same for CC1=C(C(=O)Nc2ccc3[nH]ncc3c2)C(c2ccc(F)cc2)N=C(c2ccc(C(F)(F)F)nc2)N1 (stereo unspecified) please 1.4%

Do the same for `COc1cccc(-n2ncc3c(N/N=C/c4ccc(C(=O)NCCN(C)C)cc4)ncnc32)c1` please 1.87%

Do the same for `Cc1cc(O)cc(C)c1/C=C/c1cncc(C(=O)OC(C)(C)C)c1` please 1.48%

Do the same for `CNC(=O)c1cncc(/C=C/c2ccccc2C)c1` please 2.38%

Do the same for `COc1cc(N2CCN(C(C)C)CC2)ccc1Nc1nc(Nc2cccc(F)c2C(=O)O)c2cc[nH]c2n1` please 18.5%

Do the same for `FC(F)(F)CNc1nccc(-c2cnn3ncccc23)n1` please 2.11%

----------
- Target Entity: Vascular endothelial growth factor receptor 1 (Homo sapiens) (UniProt P17948)
- Sequence (P17948 whole entry): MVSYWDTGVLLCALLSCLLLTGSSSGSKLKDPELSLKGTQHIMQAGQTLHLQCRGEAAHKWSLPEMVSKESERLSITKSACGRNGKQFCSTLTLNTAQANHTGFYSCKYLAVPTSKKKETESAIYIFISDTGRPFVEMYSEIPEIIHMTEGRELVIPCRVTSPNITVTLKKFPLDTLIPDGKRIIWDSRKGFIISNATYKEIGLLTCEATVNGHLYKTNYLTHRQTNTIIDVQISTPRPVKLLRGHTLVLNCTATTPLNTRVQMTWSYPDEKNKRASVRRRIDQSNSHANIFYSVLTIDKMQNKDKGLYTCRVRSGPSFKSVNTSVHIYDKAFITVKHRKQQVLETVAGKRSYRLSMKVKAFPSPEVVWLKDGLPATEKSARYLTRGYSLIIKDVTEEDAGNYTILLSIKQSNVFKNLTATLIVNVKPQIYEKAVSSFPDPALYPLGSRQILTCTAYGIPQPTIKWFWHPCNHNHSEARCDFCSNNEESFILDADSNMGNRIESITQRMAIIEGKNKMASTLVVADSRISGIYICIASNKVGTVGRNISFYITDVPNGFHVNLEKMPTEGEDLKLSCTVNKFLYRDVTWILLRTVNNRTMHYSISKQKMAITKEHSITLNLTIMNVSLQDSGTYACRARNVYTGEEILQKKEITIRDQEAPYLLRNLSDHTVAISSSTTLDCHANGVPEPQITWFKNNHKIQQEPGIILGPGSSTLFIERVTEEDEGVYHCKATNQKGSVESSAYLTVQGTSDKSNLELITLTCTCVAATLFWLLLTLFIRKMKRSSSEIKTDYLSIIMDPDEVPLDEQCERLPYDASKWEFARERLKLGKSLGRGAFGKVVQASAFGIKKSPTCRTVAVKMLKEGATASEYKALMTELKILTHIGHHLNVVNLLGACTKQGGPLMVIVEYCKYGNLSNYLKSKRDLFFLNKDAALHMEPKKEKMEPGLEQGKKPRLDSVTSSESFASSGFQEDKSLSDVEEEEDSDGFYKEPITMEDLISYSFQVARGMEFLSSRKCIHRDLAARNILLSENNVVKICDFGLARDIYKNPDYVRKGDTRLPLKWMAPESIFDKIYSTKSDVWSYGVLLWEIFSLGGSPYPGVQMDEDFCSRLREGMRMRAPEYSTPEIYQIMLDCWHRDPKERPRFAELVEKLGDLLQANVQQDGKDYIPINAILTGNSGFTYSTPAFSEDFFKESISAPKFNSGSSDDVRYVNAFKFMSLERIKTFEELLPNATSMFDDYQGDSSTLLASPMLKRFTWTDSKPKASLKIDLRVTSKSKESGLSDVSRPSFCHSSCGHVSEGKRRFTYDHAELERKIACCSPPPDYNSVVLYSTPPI
- Measurement Context: at 1 µM
- Description: GSK_PKIS: FLT1 mean inhibition at 1 uM [Nanosyn]
Quantity Kind: inhibition (%)
Report the figure in % without appending any unit label.

Provide the documented inhibition with Vascular endothelial growth factor receptor 1 (Homo sapiens) (UniProt P17948) as the system for `O=C(O[C@H]1CN[C@H](C#Cc2cc3ncnc(Nc4ccc5c(ccn5Cc5cc(F)ccc5F)c4)c3s2)C1)N1CCOCC1` -0.89

Do the same for CC1=C(C(=O)Nc2ccc3[nH]ncc3c2)C(c2ccc(F)cc2)N=C(c2ccc(C(F)(F)F)nc2)N1 (stereo not drawn) please 3.96

Do the same for `c1ccc(-c2n[nH]cc2-c2ccnc(-c3ccc(OCCn4ccnc4)cc3)c2)nc1` please 29.5

----------
Would you mind telling me the reported inhibition of each entry?
- Target Entity: Protein kinase C eta type (Homo sapiens) (UniProt P24723);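 further: value is the mean inhibition, from GSK PKIS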
- Sequence (P24723 whole entry): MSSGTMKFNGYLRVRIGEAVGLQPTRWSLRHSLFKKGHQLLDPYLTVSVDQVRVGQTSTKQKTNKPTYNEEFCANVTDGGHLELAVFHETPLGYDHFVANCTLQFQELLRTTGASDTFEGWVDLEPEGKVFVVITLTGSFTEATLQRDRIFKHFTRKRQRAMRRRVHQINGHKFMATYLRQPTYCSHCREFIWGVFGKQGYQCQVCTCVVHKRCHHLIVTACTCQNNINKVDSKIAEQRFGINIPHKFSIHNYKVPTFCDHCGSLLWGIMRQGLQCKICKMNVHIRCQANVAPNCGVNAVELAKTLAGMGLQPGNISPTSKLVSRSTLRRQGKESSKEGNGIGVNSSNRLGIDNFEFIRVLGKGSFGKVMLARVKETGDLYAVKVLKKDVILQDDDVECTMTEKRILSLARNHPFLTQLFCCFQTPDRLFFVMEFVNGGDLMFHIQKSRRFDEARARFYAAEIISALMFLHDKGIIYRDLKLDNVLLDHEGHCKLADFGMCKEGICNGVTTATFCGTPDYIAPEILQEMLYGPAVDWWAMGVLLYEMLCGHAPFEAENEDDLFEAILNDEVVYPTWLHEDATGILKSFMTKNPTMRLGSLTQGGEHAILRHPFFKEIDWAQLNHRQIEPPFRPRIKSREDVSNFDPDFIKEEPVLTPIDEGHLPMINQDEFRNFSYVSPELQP
- Measurement Context: at 1 µM

Returns the measured inhibition for the input compound. Input: `COc1cccc(-n2ncc3c(N/N=C/c4ccc(C(=O)NCCN(C)C)cc4)ncnc32)c1` 0.62%

Do the same for `FC(F)(F)CNc1nccc(-c2cnn3ncccc23)n1` please 1.8%

Do the same for `O=C(O[C@H]1CN[C@H](C#Cc2cc3ncnc(Nc4ccc5c(cnn5Cc5ccccc5)c4)c3s2)C1)N1CCOCC1` please -2.51%

Do the same for `CNC(=O)c1ncccc1Nc1nc(Nc2cc3c(cc2OC)CCCN3C(=O)CN(C)C)nc2[nH]ccc12` please 1.52%

Do the same for `NC(=O)c1ccc2c(-c3ccnc(NCCCO)n3)c(-c3ccc(F)cc3)nn2c1` please 4.92%

Do the same for `Fc1ccc(Nc2nccc(-c3c(-c4ccc(C(F)(F)F)cc4)nn4ncccc34)n2)cc1F` please 1.72%

Do the same for `NS(=O)(=O)c1ccc(N/N=C2\C(=O)Nc3cccc(CCc4ccncc4)c32)cc1` please 1.16%

Do the same for `CS(=O)(=O)Nc1ccc(-c2ccc3c(NC(=O)C4CC4)n[nH]c3c2)cc1` please 1.11%

Do the same for `Cn1c(-c2nonc2N)nc2cnccc21` please 29.4%
